Tested on: Staphylococcus aureus
Test: In vitro inhibitory activity against Staphylococcus aureus (EryRi 011GO25i)
Type: functional
Label yes (1) when MIC is strictly below 2 µg/mL; at or above that, label no (0).

| Compound | Classification |
| --- | --- |
| CC[C@H]1OC(=O)[C@H](C)C(=O)[C@H](C)[C@@H](O[C@@H]2O[C@H](C)C[C@H](N(C)C)[C@H]2O)[C@](C)(OC)C[C@@H](C)C(=O)[C@H](C)[C@H]2N(NCCCc3ccnc4ccc(OC)cc34)C(=O)O[C@]12C | yes (1) |
| CC[C@H]1OC(=O)[C@H](C)C(=O)[C@H](C)[C@@H](O[C@@H]2O[C@H](C)C[C@H](N(C)C)[C@H]2O)[C@](C)(OC)C[C@@H](C)C(=O)[C@H](C)[C@H]2N(N)C(=O)O[C@]12C | yes (1) |
| CC[C@H]1OC(=O)[C@H](C)[C@@H](O[C@H]2C[C@@](C)(OC)[C@@H](O)[C@H](C)O2)[C@H](C)[C@@H](O[C@@H]2O[C@H](C)C[C@H](N(C)C)[C@H]2O)[C@](C)(OC)C[C@@H](C)C(=O)[C@H](C)[C@H]2N(CCCCc3ccccc3)C(=O)O[C@]12C | no (0) |
| CC[C@H]1OC(=O)[C@H](C)C(=O)[C@H](C)[C@@H](O[C@@H]2O[C@H](C)C[C@H](N(C)C)[C@H]2O)[C@](C)(OC)C[C@@H](C)/C(=N/OCOCCOC)[C@H](C)[C@@H](O)[C@]1(C)O | no (0) |
| CC[C@H]1OC(=O)[C@H](C)C(=O)[C@H](C)[C@@H](O[C@@H]2O[C@H](C)C[C@H](N(C)C)[C@H]2O)[C@](C)(OC)C[C@@H](C)/C(=N\OCCNCCN2CCCC2)[C@H](C)[C@@H](O)[C@]1(C)O | yes (1) |

Req: Bench note: check whether CC[C@H]1OC(=O)[C@H](C)C(=O)[C@H](C)[C@@H](O[C@@H]2O[C@H](C)C[C@H](N(C)C)[C@H]2O)[C@](C)(OC)C[C@@H](C)C(=O)[C@H](C)[C@H]2N(CCCCc3cccc(Cl)c3)C(=O)O[C@]12C shows MIC below 2 µg/mL
Resp: yes (1)

Req: Does this compound meet the criterion MIC < 2 µg/mL? CCCCCCCCCCN1CCCC(O/N=C2\[C@H](C)C[C@@](C)(OC)[C@H](O[C@@H]3O[C@H](C)C[C@H](N(C)C)[C@H]3O)[C@@H](C)C(=O)[C@@H](C)C(=O)O[C@H](CC)[C@@](C)(O)[C@H](O)[C@H]2C)C1 (stereo not given in full)
Resp: yes (1)

Req: Problem: For the compound CC[C@H]1OC(=O)[C@H](C)C(=O)[C@H](C)[C@@H](O[C@@H]2O[C@H](C)C[C@H](N(C)C)[C@H]2O)[C@](C)(OC)C[C@@H](C)/C(=N\OC2CCCN(CCCC3CCCCC3)C2)[C@H](C)[C@@H](O)[C@]1(C)O (stereo not given in full) , is MIC under 2 µg/mL?
Resp: no (0)

Req: Is 2 µg/mL strictly greater than the compound's reported MIC? compound: CC[C@H]1OC(=O)[C@H](C)[C@@H](O[C@H]2C[C@@](C)(OC)[C@@H](O)[C@H](C)O2)[C@H](C)[C@@H](O[C@@H]2O[C@H](C)C[C@H](N(C)C)[C@H]2O)[C@](C)(O)C[C@@H](C)C(=O)[C@H](C)[C@@H](O)[C@]1(C)O
Resp: no (0)

Req: Please state whether MIC is below 2 µg/mL for CC[C@H]1OC(=O)[C@H](C)C(=O)[C@H](C)[C@@H](O[C@@H]2O[C@H](C)C[C@H](N(C)C)[C@H]2O)[C@](C)(OC)C[C@@H](C)/C(=N\OC[C@@H](N)C(=O)OC)[C@H](C)[C@@H](O)[C@]1(C)O
Resp: no (0)
